# studySystem: c-Met kinase (Homo sapiens, UniProt P08581)
# Construct: purchased Carna
# Sequence (P08581 25-1390): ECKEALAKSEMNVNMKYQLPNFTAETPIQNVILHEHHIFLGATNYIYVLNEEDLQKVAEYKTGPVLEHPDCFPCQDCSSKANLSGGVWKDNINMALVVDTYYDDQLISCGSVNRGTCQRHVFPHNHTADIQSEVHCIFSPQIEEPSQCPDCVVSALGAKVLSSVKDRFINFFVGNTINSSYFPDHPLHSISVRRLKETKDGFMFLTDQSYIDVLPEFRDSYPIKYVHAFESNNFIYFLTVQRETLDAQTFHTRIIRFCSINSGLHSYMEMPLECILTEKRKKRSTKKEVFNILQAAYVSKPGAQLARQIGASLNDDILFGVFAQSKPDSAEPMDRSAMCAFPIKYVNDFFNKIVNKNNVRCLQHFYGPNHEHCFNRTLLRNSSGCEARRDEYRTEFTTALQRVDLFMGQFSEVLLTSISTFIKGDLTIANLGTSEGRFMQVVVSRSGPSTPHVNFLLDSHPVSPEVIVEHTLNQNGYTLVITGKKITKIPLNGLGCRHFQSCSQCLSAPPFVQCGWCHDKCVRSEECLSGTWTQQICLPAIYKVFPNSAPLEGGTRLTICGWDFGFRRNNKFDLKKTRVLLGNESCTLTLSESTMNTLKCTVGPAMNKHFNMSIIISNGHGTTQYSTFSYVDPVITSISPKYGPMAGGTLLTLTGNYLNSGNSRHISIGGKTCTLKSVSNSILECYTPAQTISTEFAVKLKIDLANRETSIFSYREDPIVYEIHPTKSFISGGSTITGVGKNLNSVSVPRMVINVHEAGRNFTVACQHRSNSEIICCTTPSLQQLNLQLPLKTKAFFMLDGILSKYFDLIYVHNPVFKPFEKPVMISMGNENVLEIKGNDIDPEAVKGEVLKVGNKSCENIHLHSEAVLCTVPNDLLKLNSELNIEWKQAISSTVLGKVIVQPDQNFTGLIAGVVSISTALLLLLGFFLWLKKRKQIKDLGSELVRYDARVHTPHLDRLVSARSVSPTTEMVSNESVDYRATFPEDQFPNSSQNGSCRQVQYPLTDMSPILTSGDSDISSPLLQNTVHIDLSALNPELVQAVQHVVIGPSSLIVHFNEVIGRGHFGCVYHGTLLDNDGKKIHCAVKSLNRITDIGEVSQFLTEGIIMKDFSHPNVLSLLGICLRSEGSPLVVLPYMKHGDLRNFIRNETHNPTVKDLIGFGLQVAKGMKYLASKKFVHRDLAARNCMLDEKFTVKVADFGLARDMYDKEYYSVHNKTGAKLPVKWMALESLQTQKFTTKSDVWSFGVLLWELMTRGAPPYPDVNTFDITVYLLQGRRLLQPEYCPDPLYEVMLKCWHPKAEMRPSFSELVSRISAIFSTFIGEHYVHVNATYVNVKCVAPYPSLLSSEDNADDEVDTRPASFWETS
# testName: c-Met inhibition assay (Caliper motility shift assay)
# Format: biochemical
# testContext: 10 μΜ compound; n = 3 (mean ± SD)
Output Satisfied for c-Met inhibition % Inhibition (10 μΜ) not less than 50%; output Not satisfied otherwise.

The following compounds have reported results that may help.
Query string: Does the compound COc1cc2nccc(Nc3ccc4nc(-c5ccc(Br)cc5)[nH]c4c3)c2cc1OC [Compound 12g] have recorded c-Met inhibition % Inhibition (10 μΜ) that is 50% or more?
Result string: Satisfied

Query string: Is c-Met inhibition % Inhibition (10 μΜ) for COc1cc2nccc(Nc3ccc4nc(-c5c(Cl)cccc5Cl)[nH]c4c3)c2cc1OC [Compound 12q] at or above 50%?
Result string: Not satisfied

Query string: Exam item: decide whether the reported c-Met inhibition % Inhibition (10 μΜ) for COc1cc2nccc(Nc3ccc4nc(-c5c(F)cccc5F)[nH]c4c3)c2cc1OC [Compound 12p] is at least 50%.
Result string: Not satisfied

Query string: In plain terms: is recorded c-Met inhibition % Inhibition (10 μΜ) at least 50% for COc1cc2nccc(Nc3ccc4nc(-c5cccc(C)c5)[nH]c4c3)c2cc1OC [Compound 12k] ?
Result string: Satisfied

Query string: Given the entry CCc1ccc(-c2nc3ccc(Nc4ccnc5cc(OC)c(OC)cc45)cc3[nH]2)cc1 [Compound 12m] , answer whether its c-Met inhibition % Inhibition (10 μΜ) meets or surpasses 50%.
Result string: Satisfied

Next:
Query string: Given the entry COc1cc2nccc(Nc3ccc4nc(-c5ccc(C)cc5)[nH]c4c3)c2cc1OC [Compound 12l] , answer whether its c-Met inhibition % Inhibition (10 μΜ) meets or surpasses 50%.
Result string: Satisfied

Query string: Record COc1cc2nccc(Nc3ccc4nc(-c5cccc(F)c5)[nH]c4c3)c2cc1OC [Compound 12b] ; criterion: c-Met inhibition % Inhibition (10 μΜ) no lower than 50%. Met?
Result string: Satisfied

Query string: Is c-Met inhibition % Inhibition (10 μΜ) at least 50%? Consider COc1cc2nccc(Nc3ccc4nc(-c5ccccc5I)[nH]c4c3)c2cc1OC [Compound 12h]
Result string: Not satisfied

Query string: Does the compound COc1cc2nccc(Nc3ccc4nc(-c5cc(F)ccc5Br)[nH]c4c3)c2cc1OC [Compound 12s] have recorded c-Met inhibition % Inhibition (10 μΜ) that is 50% or more?
Result string: Not satisfied
